Molecular target: human A2B AR (Homo sapiens)
Construct: expressed in transfected cells; host or cells: CHO cells
Sequence (P29275 1-332): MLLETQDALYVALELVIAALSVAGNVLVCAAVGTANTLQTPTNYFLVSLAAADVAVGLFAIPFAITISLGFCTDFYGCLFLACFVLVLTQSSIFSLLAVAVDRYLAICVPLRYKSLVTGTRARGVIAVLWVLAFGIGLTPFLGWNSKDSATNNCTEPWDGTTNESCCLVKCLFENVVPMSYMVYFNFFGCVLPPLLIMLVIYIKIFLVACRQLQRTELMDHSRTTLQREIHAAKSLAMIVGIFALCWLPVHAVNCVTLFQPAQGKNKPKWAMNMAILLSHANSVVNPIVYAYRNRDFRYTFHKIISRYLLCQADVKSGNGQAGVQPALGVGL
Assay: Radioligand binding assay at human A2B AR vs. [^3H]PSB-603
Settings: at 1,000 nM, read-out: % inhibition of radioligand binding at indicated concentration, A2B vs. [^3H]PSB-603
property-name: inhibition at 1 µM (%)
Answer with a number only, understood to be in %.

Form field inhibition at 1 µM for item Cn1c(=O)[nH]c(=O)c2c1nc1n2CCN(CCc2cccc(Br)c2)C1 [Compound 13d] on human A2B AR (Homo sapiens): 1

The reported inhibition at 1 µM value, human A2B AR (Homo sapiens), for C#CCn1c(=O)c2c(nc3n2CCN(Cc2ccccc2)C3)n(CC)c1=O [Compound 20e] reads 2

The compound C#CCn1c(=O)c2c(nc3n2CCN(CCc2ccc(OC)cc2)C3)n(CC)c1=O [Compound 20k] on human A2B AR (Homo sapiens): inhibition at 1 µM was 10

Readout inhibition at 1 µM for CCn1c(=O)c2c(nc3n2CCN(Cc2ccccc2C(F)(F)F)C3)n(CC)c1=O [Compound 15f] , test system human A2B AR (Homo sapiens), was 2

Reported inhibition at 1 µM (human A2B AR (Homo sapiens)) for entry CCn1c(=O)c2c(nc3n2CCN(Cc2cc(Cl)cc(Cl)c2)C3)n(CC)c1=O [Compound 15m] is 23

// inhibition at 1 µM (human A2B AR (Homo sapiens)) for CCn1c(=O)c2c(nc3n2CCN(Cc2cc(Br)ccc2F)C3)n(CC)c1=O [Compound 15l] = 24

Observed inhibition at 1 µM, human A2B AR (Homo sapiens), CCn1c(=O)c2c(nc3n2CCN(Cc2ccc(F)cc2)C3)n(C)c1=O [Compound 14h] : 9

So the reported inhibition at 1 µM for C#CCn1c(=O)c2c(nc3n2CCN(c2ccc(OC)c(OC)c2)C3)n(CC)c1=O [Compound 20d] , on human A2B AR (Homo sapiens), turned out to be 8

Ref: paper PMC6028563
